Reported Increase in lung resistance (%) is given for each of the following compounds.
Tested on: airway hyper-responsiveness induced by peroxynitrite
Assay: Airway hyper-responsiveness model induced by exposure of peroxynitrite in guinea pigs (lung resistance after histamine)
Type: in vivo
Conditions: 30 mg/kg orally one hour before peroxynitrite, histamine 32 μg/kg i.v. on 5-day, control group 759, non-stimulation group 382
Supply the numeric figure in %, leaving out any unit text.

CCCCCCCCOc1c(O)c2ccc(N)cc2n(C)c1=O [Compound 55]; 425

**Q:** Please look at CCCCCCOc1c(O)c2ccc(NC=O)cc2n(CCCC)c1=O [Compound 459] and tell me its recorded Increase in lung resistance (%) on airway hyper-responsiveness induced by peroxynitrite.
**A:** 427

**Q:** Fill in: Increase in lung resistance (%) on airway hyper-responsiveness induced by peroxynitrite, entry CCCCCCOc1c(O)c2ccc(NC(=O)C=Cc3cc(OC)c(O)c(OC)c3)cc2n(C)c1=O [Compound 549]
**A:** 423

**Q:** Supply Increase in lung resistance (%) measured with airway hyper-responsiveness induced by peroxynitrite for CCCCCCCCOc1c(O)c2ccc(NC(C)=O)cc2n(C)c1=O [Compound 396] .
**A:** 421

**Q:** State Increase in lung resistance (%) (airway hyper-responsiveness induced by peroxynitrite) of CCCCCCOc1c(O)c2ccc(NC(=O)C=Cc3ccc(O)c(OC)c3)cc2n(C)c1=O [Compound 581] .
**A:** 430

**Q:** Enter Increase in lung resistance (%) (test system airway hyper-responsiveness induced by peroxynitrite) for CCCCCCCCn1c(=O)c(OC)c(O)c2ccc(N)cc21 [Compound 173]
**A:** 430

**Q:** Param request: Increase in lung resistance (%) | system airway hyper-responsiveness induced by peroxynitrite | item CCCCCCOc1c(O)c2ccc(N)cc2n(CCCCCC)c1=O [Compound 147]
**A:** 429

**Q:** Retrieve Increase in lung resistance (%) on airway hyper-responsiveness induced by peroxynitrite; query CCCCOc1c(O)c2ccc(N(C)C)cc2n(CCCC)c1=O [Compound 303]
**A:** 427

**Q:** Enter recorded Increase in lung resistance (%) with airway hyper-responsiveness induced by peroxynitrite for CCCCn1c(=O)c(O)c(OC)c2ccc(N(C)C)cc21 [Compound 309] here.
**A:** 435
